Field: growth. Provide a value for each of the molecules that follow.
# Test system: NCI-H522 lung
# Test Description: NCI-60 one-dose screen, 48 h (100 = growth as untreated, 0 = no growth, -100 = all killed)
# Particulars: 10 µM unless noted
Compounds without any hit were thinned out: in the full panel of roughly 83,000, 20% have a hit.
One number for each entry, in %.

// known answers, use as guide
C=CCc1ccc(OC(=O)Cc2ccccc2)c(OC)c1 = 90.4
O=CN1N=C(c2ccc3c(c2)OCO3)CC1c1sc(N(CCCl)CCCl)nc1Cl (stereo unspecified) = 74.7
CCOP(=O)(OCC)Oc1ccc(Sc2ccc(OP(=O)(OCC)OCC)cc2)cc1 = 91.2

Batch request: growth per item, same order as input.
1. C[C@]12CCC(=O)CC1CC[C@@H]1C2CC[C@@]2(C)C1CC[C@@H]2OC(=O)CC[Se][Se]CCC(=O)O[C@H]1CCC2[C@@H]3CCC4CC(=O)CC[C@]4(C)C3CC[C@@]21C (stereo partly specified)
2. COC1=CC(=O)OC(CCc2ccc3c(c2)OCO3)C1 (stereo unspecified)
3. COc1ccc(CN2CCN(Cc3ccccc3)CC2)c(O)c1
4. NC(=O)OCC(CO)(c1ccccc1)c1ccccc1
5. N#CC1c2ccccc2C=CN1C(=O)c1ccc(N(CCCl)CCCl)cc1 (stereo unspecified)
6. O=C(O)c1[nH]c(=O)[nH]c(=O)c1F

*A*
[88.3, 76.9, 71.9, 98.8, 69, 88.9]

# return growth for each item in the list
1. CNC(=O)Oc1cccc(N(C)C)c1
2. O=[N+]([O-])c1ccccc1N1CCNCC1

*A*
[89.1, 88.6]

###

# System: HCT-116 colon
# Test Description: NCI-60 one-dose screen, 48 h (100 = growth as untreated, 0 = no growth, -100 = all killed)
# Particulars: 10 µM unless noted
This is part of a sample that, as a whole, favours compounds with a hit. Of some 83,000 tested, about 20% had one in any assay.
Measure: growth (%)
Give bare numbers, in %.

Completed entries (count: 2):
O=C(CCF)c1ccc(O)cc1 = 103
COC[CH2][Hg][C]#[C][Hg][CH2]COC = 99.2

Could I get growth for every one of these entries?
1. CC1(C)N=C(N)N=C(N)N1c1ccc(CCCCc2ccc(Cl)cc2S(=O)(=O)F)c(Cl)c1
2. CN(Cc1cccnc1)N=O

*A*
[14.9, 93.1]

###

# Test system: HL-60(TB) leukemia
# Test Description: NCI-60 one-dose screen, 48 h (100 = growth as untreated, 0 = no growth, -100 = all killed)
# Particulars: 10 µM unless noted
The panel holds about 83,000 compounds, 20% with a hit somewhere; the sample as a whole holds those more often.
Measure: growth (%)
Answers are plain numbers, in %.

O=C1OC(=O)C2C1C1(Cl)C(Cl)=C(Cl)C2(Cl)C2C(=O)OC(=O)C21 (stereo unspecified) = 98
COc1ccc(OC)c(-c2ccc(-c3ccccc3N)c3[nH]c4ccccc4c23)c1 = 93.4
C[C@H]1C(=O)N2c3ccccc3[C@@]3(O)C[C@@H](n4cnc5ccccc5c4=O)C(=O)N1[C@@H]23 = 64.6
CC1=NN(c2nc(-c3ccc(Cl)cc3)c(C#N)c(N3CCOCC3)n2)C(=O)C1 = 81.8
CCOc1cccc(/C=N/NC(=O)c2ccccc2Nc2ccnc(C(F)(F)F)c2)c1O = -4.47
C=C1C(=O)O[C@H]2[C@H]1CC/C(COC(=O)c1ccccc1)=C\CC[C@@]1(C)O[C@@H]21 = -59.5
N#Cc1cc(-c2cc3ccccc3o2)oc1N = -49.3
[N-]=[N+]=NCC1OC(n2cnc3c(NC(=O)Nc4ccccc4)ncnc32)C2OC(=O)CC12 (stereo unspecified) = 87.3

Would you mind giving growth for every molecule in the list below?
1. CCNc1cc2c(cc1Br)-c1ccccc1C2=O
2. NS(=O)(=O)c1ccc(N/C=C/C(=O)c2cc3ccccc3oc2=O)cc1
3. COc1ccc(/C=C/C(=O)c2ccc(NC(=O)CSc3nnc(-c4cc(OC)c(OC)c(OC)c4)o3)cc2)cc1
4. Cc1nccc2c3ccc(OCc4cn(-c5ccc(Cl)cc5)nn4)cc3n(CC(C)C)c12
5. COC(=O)c1nc(N)nc(C(=O)OC)c1C(=O)c1ccc(F)cc1
6. COCCNC(C)=O
7. Cc1cccc(N2C(=O)/C(=C/C(Cl)=C/c3ccc([N+](=O)[O-])cc3)SC2=S)c1C

*A*
[110, 100, -53.4, -49.4, 115, 107, -13.3]

Could I get growth for every one of these entries?
1. N#Cc1ccc(OC(=O)Nc2c(Cl)cc(Cl)cc2Cl)cc1
2. Cc1ccc2nc3c(cc2c1)CSc1nnc(-c2ccc[nH]c2=S)n1N3
3. COc1cc(Nc2cn[nH]c2-c2ccc(Cl)cc2)cc(OC)c1OC
4. CN1C(=O)NC(Cc2c[nH]c3c(Cl)cccc23)C1=O (stereo unspecified)
5. Cc1ccc(C2=NNC(c3sc(Cl)nc3Cl)C2)cc1 (stereo unspecified)
6. Cc1cccc(C)c1-c1cc(Cc2ccc(Cl)cc2)c(=O)[nH]n1

*A*
102
102
14.6
98.6
92.7
90.8

###

# Test system: K-562 leukemia
# Test Description: NCI-60 one-dose screen, 48 h
# Particulars: 10 µM unless noted
The panel holds about 83,000 compounds, 20% with a hit somewhere; the sample as a whole holds those more often. Calls of active or inactive are those of the source. Rule for the calls: active = growth percent below 10; inactive = the rest.
Lab note: assign the record to one of active, inactive

COc1cc[c]([Hg][Cl])cc1 = inactive
CCCCn1cc(C(=O)/C(C#N)=C/c2cc3ccccc3nc2Cl)c2cc(OC)ccc21 = inactive
CC1(C)N=C(N)N=C(N)N1c1ccc(OCCCCNC(=O)Nc2cccc(S(=O)(=O)F)c2)c(Cl)c1 = inactive
C[C@]12CC[C@H]3[C@@H](C[C@@H]4N=C(c5ccc(O)cc5)S[C@@]45C[C@H](O)CC[C@]35C)[C@@H]1CC[C@@H]2O = inactive
O=C(CCl)NCNC(=O)CCl = inactive

*Q* What was the test verdict on `CCOC(=O)C1(c2ccccc2)CCN(CC(=O)c2ccc(NC(C)=O)cc2)CC1` ?
*A* inactive

*Q* Check the results log: what was the call for COc1cc2c(cc1OC)CN(C)C(C)C2 (stereo unspecified) ?
*A* inactive

*Q* Status in this test for `COc1ccccc1N1CCN(CCc2c[nH]c3cc4c(cc23)OCO4)CC1` ?
*A* inactive

###

I'd appreciate it if you could supply growth values for the items below.
# Tested on: HL-60(TB) leukemia
# Test Description: NCI-60 one-dose screen, 48 h (100 = growth as untreated, 0 = no growth, -100 = all killed)
# Particulars: 10 µM unless noted
About 83,000 compounds went through this panel and 20% of them were active in at least one assay; those are over-represented in the sample as a whole. Activity calls are given as the source filed them. The calls were made as follows: active = growth percent below 10; inactive = the rest.

Some entries whose results are on file:
c1cncc(CNc2ccccc2-c2nnc(Nc3ccc4c(c3)OCO4)o2)c1 = -22.5% (active)
c1ccc(CP(Cc2ccccc2)c2ccccc2)cc1 = 84.2% (inactive)
COc1cc(Cl)cc(-c2nn(-c3cccc(NC(=O)Nc4ccc(Cl)c(Cl)c4)c3)cc2-c2ccncc2)c1 = -5.12% (active)

Dear reader, for each entry below, please note its growth.
1. CN(C)c1ccc(/C=C/C(=O)c2ccc(Nc3nc(Nc4ccc(F)cc4)nc(Nc4ccc(Cl)cc4)n3)cc2)cc1
2. COc1ccc(/C=N\Nc2nc(SCCC(C)C)nc(-c3ccc(OC)cc3)c2C#N)cc1
3. CCOc1ncc([N+](=O)[O-])c(OCC)n1
4. O=P(O)(c1ccccc1)c1ccccc1I
5. CN1C2CCC1/C(=C\c1ccc(Cl)cc1)C1=C2[C@@H](c2ccc(Cl)cc2)C(C#N)=C(N)O1 (stereo not given in full)
6. C=C1C(=O)O[C@H]2[C@H]1CC/C(COC(=O)CCCCCCCCC(=O)OC/C1=C/CC[C@@]3(C)O[C@H]3[C@H]3OC(=O)C(=C)[C@@H]3CC1)=C\CC[C@@]1(C)O[C@@H]21
7. Cc1ccc(Cl)cc1Nc1nc(C(F)(F)F)ccc1C(=O)N/N=C/c1cccnc1

*A*
1: -70.5% (active); 2: 34% (inactive); 3: 108% (inactive); 4: 117% (inactive); 5: 81.8% (inactive); 6: -32.8% (active); 7: 3.36% (active)

Would you be so kind as to report growth for each listed record?
1. COc1ccc(-c2nc(SCC(C)C)nc(Nc3ccc(C)cc3)c2C#N)cc1
2. OC(COc1ccccc1Cl)CN1CCN(c2ccc(Cl)cc2)CC1 (stereo not given)
3. Nc1c(Cl)cc(/C=C2\C=Cc3ccccc32)cc1Cl
4. COc1cc(C(=O)O)c(O)c(C(C)(C)C)c1
5. N#Cc1c(N)nn(C(=O)c2ccc(NC(=O)c3ccccn3)cc2)c1-c1ccc(Cl)cc1
6. COc1cccc(C2C(C#N)=C(N)Oc3cc(OCCCCCC[P+](c4ccccc4)(c4ccccc4)c4ccccc4)ccc32)c1 (stereo not given)
7. O=C1/C=C/[C@@H](O)[C@@H]2C[C@@H](O)C[C@H]2/C=C/CCC[C@H](CCc2ccc3ncccc3c2)O1
8. COc1ccc(Br)c2ccccc12

*A*
1: 92.3% (inactive); 2: 109% (inactive); 3: 104% (inactive); 4: 106% (inactive); 5: 69.1% (inactive); 6: -39.6% (active); 7: -52.3% (active); 8: 88.4% (inactive)

Give measured growth for every item shown.
1. Nc1nn2cc(-c3ccc(Cl)s3)nc2c2ccccc12
2. CCC(=O)Nc1nnc(Cc2ccc(OC)c(OC)c2)s1

*A*
1. 54.7% (inactive)
2. 53.2% (inactive)

FYI, the data here is from PubChem BioAssay (NCI).
